FYI, the data here is from patent US20220098203A1.

System: HCT116 MTAP-/-
Experiment: Inhibition of cellular proliferation (Cell Titer Glo), HCT116 MTAP-/-
Format: cell-based, human
Conditions: Homo sapiens, HCT-116, 96 h, Table 5a, 4 days, read-out: 4 Day Relative Growth Inhibition (MTAP −/−)
pIC50: −log10 of the molar value.
parameter measured: pIC50

Known results for compounds:
[[record]]
compound_structure = "[2H]C([2H])([2H])Oc1ccc(N2C(=O)N(c3ccc4nn(C)cc4c3)Cc3c(C)cc(OCC(F)F)nc32)cc1"
target_system = "HCT116 MTAP-/-"
parameter_measured = "pIC50"
result_value = "> 7.00"

[[record]]
compound_structure = "COc1ccc(N2Cc3ccc(NCC(F)(F)F)nc3N(c3ccc(Cl)cc3)C2=O)cc1"
target_system = "HCT116 MTAP-/-"
parameter_measured = "pIC50"
result_value = "< 6.00"

[[record]]
compound_structure = "Cn1cc2cc(N3Cc4ccc(OCC(F)F)nc4N(c4ccc5[nH]ccc5c4)C3=O)ccc2n1"
target_system = "HCT116 MTAP-/-"
parameter_measured = "pIC50"
result_value = "> 7.00"

[[record]]
compound_structure = "Cn1cc2cc(N3Cc4cnc(NCC(F)(F)F)nc4N(c4ccc(-c5nc[nH]n5)cc4)C3=O)ccc2n1"
target_system = "HCT116 MTAP-/-"
parameter_measured = "pIC50"
result_value = "6.00 to 7.00"


Data request: Report measured pIC50; entry is CCOc1ccc2c(n1)N(c1ccc(OC(F)F)cc1)C(=O)N(c1ccc3ncn(C)c3c1)C2
Data returned: 6.00 to 7.00

Data request: Report measured pIC50; entry is [2H]C([2H])([2H])Oc1ccc(N2C(=O)N(c3ccc4nn(C)cc4c3)Cc3ccc(OCCF)nc32)cc1
Data returned: 6.00 to 7.00
